# Tested on: IL-6
# Test: IL-6 inhibition in LPS-stimulated THP-1 monocytes (HTRF)
# Format: cell-based, human
# Condition Label: Homo sapiens; THP-1 cells, 500 ng/mL LPS, 22 h, HTRF IL-6 readout; 10-point dose-response from 10 μM
pEC50: −log10 of the molar value.
Assay Endpoint: pEC50

Use the examples below as a reference point.
{"Chemical Structure": "CC(C)Nc1cncc(-c2cnc3[nH]nc(-c4cc5c(-c6cccnc6)cccc5[nH]4)c3c2)c1", "pEC50": 5.81}
{"Chemical Structure": "c1ccc(CNCc2cncc(-c3cnc4[nH]nc(-c5cc6ccccc6[nH]5)c4c3)c2)cc1", "pEC50": 5.40}

(a) Cc1ncc(-c2cnc3[nH]nc(-c4cc5ccccc5[nH]4)c3c2)n1C
(b) CN(C)Cc1cncc(-c2cnc3[nH]nc(-c4cc5c(N6CCCCC6)cccc5[nH]4)c3c2)c1
Task for the reader: decide whether a or b has the larger pEC50. // caller expects the label of the chosen entry
b
(b: 5.64, a: 5.36)

(A) CN(C)Cc1cncc(-c2cnc3[nH]nc(-c4cc5c(-c6cc(F)cc(CNS(C)(=O)=O)c6)cccc5[nH]4)c3c2)c1
(B) CN(C)CCNc1cc(F)cc(-c2cccc3[nH]c(-c4n[nH]c5ncc(-c6cncnc6)cc45)cc23)c1
(C) CCCCC(=O)Nc1cncc(-c2cnc3[nH]nc(-c4cc5c(-c6ccccc6F)cccc5[nH]4)c3c2)c1
(D) O=C(Nc1cncc(-c2cnc3[nH]nc(-c4cc5c(-c6cccnc6)cccc5[nH]4)c3c2)c1)C1CCC1
(E) O=C(CC1CCNCC1)Nc1cncc(-c2cnc3[nH]nc(-c4cc5c(-c6ccccn6)cccc5[nH]4)c3c2)c1
Order the items by recorded pEC50; the first position goes to the largest value. Output spec: a listing of the labels in the requested order.
B, D, E, A, C

(P) CC(C)(C)C(=O)Nc1cncc(-c2cnc3[nH]nc(-c4cc5c(-c6cc(F)cc(CNS(C)(=O)=O)c6)cccc5[nH]4)c3c2)c1
(Q) CCNCc1cncc(-c2cnc3[nH]nc(-c4cc5c(N6CCCCC6)cccc5[nH]4)c3c2)c1
Of P and Q , whose reported pEC50 is the larger number? Please indicate the selected item by its label.
P

====

# Test system: Wnt activity (Sp5-Luc reporter gene, SW480 colon carcinoma cells)
# Test: Screening assay for Wnt activity: Sp5-Luc reporter gene assay in SW480 cells
# Assay type: cell-based, human
# Condition Label: Homo sapiens, at 10 μM, given for EC50 of >10 μM, read-out: percent inhibition at 10 μM
Assay Endpoint: inhibition at 10 µM (%)
API: value field is a number in %; no unit string.

Take a look at these entries with their results.
{"Molecule": "c1ccc(-c2cnc3[nH]nc(-c4cc5c(-c6ccncc6)cccc5[nH]4)c3c2)nc1 [Compound 120]", "Assay Endpoint": "inhibition at 10 µM", "Measured Number": 16.1}
{"Molecule": "CN(C)CCOc1cncc(-c2cnc3[nH]nc(-c4cc5c(-c6cccnc6)cccc5[nH]4)c3c2)c1 [Compound 565]", "Assay Endpoint": "inhibition at 10 µM", "Measured Number": 34.5}

Jot down inhibition at 10 µM (Wnt activity (Sp5-Luc reporter gene, SW480 colon carcinoma cells)) of Fc1cccc(-c2cccc3[nH]c(-c4n[nH]c5ncc(-c6ccncc6)cc45)cc23)c1 [Compound 15] .
26

Provide inhibition at 10 µM, tested on Wnt activity (Sp5-Luc reporter gene, SW480 colon carcinoma cells), for CC(C)(C)C(=O)Nc1cncc(-c2cnc3[nH]nc(-c4cc5c(-c6ccoc6)cccc5[nH]4)c3c2)c1 [Compound 290] .
53

Using Wnt activity (Sp5-Luc reporter gene, SW480 colon carcinoma cells) as the test system, report measured inhibition at 10 µM of Cc1ccncc1-c1cnc2[nH]nc(-c3cc4c(-c5ccncc5)cccc4[nH]3)c2c1 [Compound 99] .
69.3

Just for reference, patent US20180214428A1 is where these values come from.
